- Tested on: MDA-MB-231
- ASSAY: Cell proliferation assay (CellTiter-Glo)
- Format: cell-based
- CONDITION CONTEXT: Homo sapiens, Breast, 72 hours, 0.5% fetal bovine serum, read-out: antiproliferative activity IC50, MDA-MB-231
pIC50: −log10 of the molar value.
Listing of entries alongside the reported pIC50.

Examples with answers:
compound="CNc1ncc(-c2nc(N3CCOCC3)c3sc(CN(C)c4ncc(C(=O)NO)cn4)cc3n2)cn1 [Compound 116]" tested_target=MDA-MB-231 measured_quantity=pIC50 reading="7.00 to 8.00"
compound="CN(Cc1cc2nc(-c3ccc(N)cc3)nc(N3CCOCC3)c2s1)c1ncc(C(=O)NO)cn1 [Compound 150]" tested_target=MDA-MB-231 measured_quantity=pIC50 reading="> 8.00"

Q: What reported pIC50 corresponds to CC(=O)Nc1ccc(-c2nc(N3CCOCC3)c3sc(CN(C)c4ncc(C(=O)NO)cn4)cc3n2)cn1 [Compound 112] on MDA-MB-231?
A: 7.00 to 8.00

Q: What reported pIC50 corresponds to CN(Cc1cc2nc(-c3ccc4[nH]cnc4c3)nc(N3CCOCC3)c2s1)c1ncc(C(=O)NO)cn1 [Compound 187] on MDA-MB-231?
A: 6.00 to 7.00

Q: What reported pIC50 corresponds to CNc1ccc(-c2nc(N3CCOCC3)c3sc(CN(C)c4ncc(C(=O)NO)cn4)cc3n2)cn1 [Compound 111] on MDA-MB-231?
A: 6.00 to 7.00

Q: What reported pIC50 corresponds to Cc1nc2ccc(-c3nc(N4CCOCC4)c4sc(CN(C)c5ncc(C(=O)NO)cn5)cc4n3)cc2[nH]1 [Compound 199] on MDA-MB-231?
A: 7.00 to 8.00

* * *

- TESTED TARGET: mTor serine/threonine protein kinase (Homo sapiens, UniProt P42345)
- Construct: FLAG
- ASSAY: mTor kinase radioisotope assay
- CONDITION CONTEXT: 70 uM ATP, 40 minutes; read-out: m-TOR IC50
MEASURED QUANTITY: IC50

Examples with answers:
compound=COc1ccc(-c2nc(N3CCOCC3)c3sc(CN(CCO)c4ncc(C(=O)NO)cn4)cc3n2)cn1 reading="> 10000 nM"
compound=C[C@H](O)c1cccc(-c2nc(N3CCOCC3)c3sc(CN(C)c4ncc(C(=O)NO)cn4)cc3n2)c1 reading="> 10000 nM"

Q: What reported IC50 corresponds to `COC(=O)CN(Cc1cc2nc(-c3cccc4[nH]ncc34)nc(N3CCOCC3)c2s1)c1ncc(C(=O)NO)cn1` on mTor serine/threonine protein kinase (Homo sapiens, UniProt P42345)?
A: 1000 to 10000 nM

Q: What reported IC50 corresponds to `N#CCCN(Cc1cc2nc(-c3cccc4[nH]ncc34)nc(N3CCOCC3)c2s1)c1ncc(C(=O)NO)cn1` on mTor serine/threonine protein kinase (Homo sapiens, UniProt P42345)?
A: 100 to 1000 nM

Q: What reported IC50 corresponds to `CN(Cc1cc2nc(-c3cnn(C)c3)nc(N3CCOCC3)c2s1)c1ncc(C(=O)NO)cn1` on mTor serine/threonine protein kinase (Homo sapiens, UniProt P42345)?
A: > 10000 nM

Q: What reported IC50 corresponds to `CN(Cc1cc2nc(-c3cccc(C(N)=O)c3)nc(N3CCOCC3)c2s1)c1ncc(C(=O)NO)cn1` on mTor serine/threonine protein kinase (Homo sapiens, UniProt P42345)?
A: 100 to 1000 nM

Q: What reported IC50 corresponds to `CC(=O)Nc1ccc(-c2nc(N3CCOCC3)c3sc(CN(C)c4ncc(C(=O)NO)cn4)cc3n2)cc1` on mTor serine/threonine protein kinase (Homo sapiens, UniProt P42345)?
A: < 100 nM

Q: What reported IC50 corresponds to `CN(Cc1cc2nc(-c3c[nH]c4ccccc34)nc(N3CCOCC3)c2s1)c1ncc(C(=O)NO)cn1` on mTor serine/threonine protein kinase (Homo sapiens, UniProt P42345)?
A: 100 to 1000 nM

Q: What reported IC50 corresponds to `CN(Cc1cc2nc(-c3cccc(CO)c3)nc(N3CCOCC3)c2s1)c1ncc(C(=O)NO)cn1` on mTor serine/threonine protein kinase (Homo sapiens, UniProt P42345)?
A: < 100 nM

Q: What reported IC50 corresponds to `CN(Cc1cc2nc(-c3cc(F)cc4[nH]ncc34)nc(N3CCOCC3)c2s1)c1ncc(C(=O)NO)cn1` on mTor serine/threonine protein kinase (Homo sapiens, UniProt P42345)?
A: 1000 to 10000 nM

Q: What reported IC50 corresponds to `CC(=O)c1ccc(F)c(-c2nc(N3CCOCC3)c3sc(CN(C)c4ncc(C(=O)NO)cn4)cc3n2)c1` on mTor serine/threonine protein kinase (Homo sapiens, UniProt P42345)?
A: > 10000 nM

Q: What reported IC50 corresponds to CC(O)c1cccc(-c2nc(N3CCOCC3)c3sc(CN(C)c4ncc(C(=O)NO)cn4)cc3n2)c1 (stereo not drawn) on mTor serine/threonine protein kinase (Homo sapiens, UniProt P42345)?
A: 100 to 1000 nM

Q: What reported IC50 corresponds to `CN(C)c1ncc(-c2nc(N3CCOCC3)c3sc(CN(C)c4ncc(C(=O)NO)cn4)cc3n2)cn1` on mTor serine/threonine protein kinase (Homo sapiens, UniProt P42345)?
A: 1000 to 10000 nM

Q: What reported IC50 corresponds to `CN(Cc1cc2nc(-c3cc(O)ccc3F)nc(N3CCOCC3)c2s1)c1ncc(C(=O)NO)cn1` on mTor serine/threonine protein kinase (Homo sapiens, UniProt P42345)?
A: < 100 nM

Q: What reported IC50 corresponds to `O=C(NO)c1cnc(N2CCN(Cc3cc4nc(-c5cccc6[nH]ncc56)nc(N5CCOCC5)c4s3)CC2)nc1` on mTor serine/threonine protein kinase (Homo sapiens, UniProt P42345)?
A: 1000 to 10000 nM

* * *

- TESTED TARGET: PI3Kα (p110α/p85α) (Homo sapiens, UniProt P42336)
- Construct: GST (N)
- Sequence (P42336 whole entry): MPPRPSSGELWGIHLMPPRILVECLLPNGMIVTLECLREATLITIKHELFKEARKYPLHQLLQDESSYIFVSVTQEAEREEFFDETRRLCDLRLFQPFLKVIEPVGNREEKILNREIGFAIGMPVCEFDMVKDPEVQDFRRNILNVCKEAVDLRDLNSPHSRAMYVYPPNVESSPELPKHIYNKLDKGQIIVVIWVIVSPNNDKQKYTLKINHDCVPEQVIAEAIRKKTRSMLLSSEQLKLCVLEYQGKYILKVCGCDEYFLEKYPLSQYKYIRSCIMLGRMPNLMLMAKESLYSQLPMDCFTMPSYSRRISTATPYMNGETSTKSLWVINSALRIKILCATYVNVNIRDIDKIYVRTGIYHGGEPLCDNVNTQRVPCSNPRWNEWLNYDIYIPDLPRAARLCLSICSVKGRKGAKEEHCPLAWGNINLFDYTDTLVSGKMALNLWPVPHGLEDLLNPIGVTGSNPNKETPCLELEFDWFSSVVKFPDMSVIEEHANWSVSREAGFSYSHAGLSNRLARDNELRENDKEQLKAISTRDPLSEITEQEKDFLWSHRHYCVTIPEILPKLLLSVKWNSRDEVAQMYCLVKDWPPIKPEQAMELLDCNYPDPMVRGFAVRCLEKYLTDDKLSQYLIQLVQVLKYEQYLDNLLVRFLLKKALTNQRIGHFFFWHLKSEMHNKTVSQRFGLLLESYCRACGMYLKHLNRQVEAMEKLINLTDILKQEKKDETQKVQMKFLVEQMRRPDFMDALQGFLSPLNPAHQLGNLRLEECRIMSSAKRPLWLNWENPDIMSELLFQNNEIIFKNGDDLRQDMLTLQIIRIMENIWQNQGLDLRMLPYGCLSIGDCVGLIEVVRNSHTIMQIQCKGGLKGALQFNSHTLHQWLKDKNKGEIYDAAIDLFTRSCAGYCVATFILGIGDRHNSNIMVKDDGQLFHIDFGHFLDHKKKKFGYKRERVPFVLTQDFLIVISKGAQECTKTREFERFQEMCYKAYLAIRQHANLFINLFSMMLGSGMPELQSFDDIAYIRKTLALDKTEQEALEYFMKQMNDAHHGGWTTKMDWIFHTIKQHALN
- Sequence (P27986 whole entry partner): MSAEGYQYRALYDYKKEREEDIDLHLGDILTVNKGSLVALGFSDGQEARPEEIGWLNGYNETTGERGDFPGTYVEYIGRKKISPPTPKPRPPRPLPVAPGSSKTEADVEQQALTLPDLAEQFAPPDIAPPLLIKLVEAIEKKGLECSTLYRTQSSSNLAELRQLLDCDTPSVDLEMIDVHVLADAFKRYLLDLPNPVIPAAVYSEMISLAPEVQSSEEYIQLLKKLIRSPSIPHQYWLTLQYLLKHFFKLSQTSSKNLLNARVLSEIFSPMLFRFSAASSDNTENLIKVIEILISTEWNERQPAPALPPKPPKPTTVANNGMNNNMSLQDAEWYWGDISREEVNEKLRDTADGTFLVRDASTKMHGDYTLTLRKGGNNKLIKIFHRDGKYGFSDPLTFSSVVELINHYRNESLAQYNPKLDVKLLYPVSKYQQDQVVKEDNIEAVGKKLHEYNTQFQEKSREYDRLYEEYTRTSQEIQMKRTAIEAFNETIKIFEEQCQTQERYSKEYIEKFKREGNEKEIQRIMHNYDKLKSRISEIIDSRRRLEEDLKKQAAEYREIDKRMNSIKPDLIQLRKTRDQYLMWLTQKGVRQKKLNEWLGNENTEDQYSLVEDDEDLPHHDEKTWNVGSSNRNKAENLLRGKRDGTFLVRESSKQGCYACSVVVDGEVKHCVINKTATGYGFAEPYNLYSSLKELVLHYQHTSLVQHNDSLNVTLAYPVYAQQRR
- ASSAY: PI3Kα ADP-Glo assay
- CONDITION CONTEXT: 20 μM PIP2, 10 μM ATP, 30 minutes
Listing of entries alongside the reported IC50.

molecule="CN(Cc1cc2nc(-c3cccc4[nH]ncc34)nc(N3CCN(CCO)CC3)c2s1)c1ncc(C(=O)NO)cn1 [Compound 63]" tested_target="PI3Kα (p110α/p85α) (Homo sapiens, UniProt P42336)" measured_quantity=IC50 reading="> 10000 nM"
molecule="CC1CN(c2nc(-c3cccc4[nH]ncc34)nc3cc(CN(C)c4ncc(C(=O)NO)cn4)sc23)CC(C)O1 (stereo not drawn) [Compound 65]" tested_target="PI3Kα (p110α/p85α) (Homo sapiens, UniProt P42336)" measured_quantity=IC50 reading="100 to 1000 nM"
molecule="CNc1ccc(-c2nc(N3CCOCC3)c3sc(CN(C)Cc4nc5cc(/C=C/C(=O)NO)ccc5n4C)cc3n2)cn1 [Compound 329]" tested_target="PI3Kα (p110α/p85α) (Homo sapiens, UniProt P42336)" measured_quantity=IC50 reading="< 100 nM"
molecule="Cn1cc(-c2nc(N3CCOCC3)c3sc(CN(CCO)c4ncc(C(=O)NO)cn4)cc3n2)cn1 [Compound 313]" tested_target="PI3Kα (p110α/p85α) (Homo sapiens, UniProt P42336)" measured_quantity=IC50 reading="100 to 1000 nM"
molecule="CS(=O)(=O)N1CCN(Cc2cc3nc(-c4ccc(OCCCCCC(=O)NO)cc4)nc(N4CCOCC4)c3s2)CC1 [Compound 320]" tested_target="PI3Kα (p110α/p85α) (Homo sapiens, UniProt P42336)" measured_quantity=IC50 reading="100 to 1000 nM"
molecule="COc1ccc(-c2nc(N3CCOCC3)c3sc(NS(=O)(=O)c4ccc(/C=C/C(=O)NO)cc4)cc3n2)cn1 [Compound 222]" tested_target="PI3Kα (p110α/p85α) (Homo sapiens, UniProt P42336)" measured_quantity=IC50 reading="100 to 1000 nM"
molecule="COc1ncc(-c2nc(N3CCOCC3)c3sc(NS(=O)(=O)c4ccc(/C=C/C(=O)NO)cc4)cc3n2)cn1 [Compound 219]" tested_target="PI3Kα (p110α/p85α) (Homo sapiens, UniProt P42336)" measured_quantity=IC50 reading="< 100 nM"
molecule="CN(Cc1cc2nc(-c3cccc(OCCO)c3)nc(N3CCOCC3)c2s1)c1ncc(C(=O)NO)cn1 [Compound 289]" tested_target="PI3Kα (p110α/p85α) (Homo sapiens, UniProt P42336)" measured_quantity=IC50 reading="< 100 nM"

Q: Name the recorded IC50 for Nc1ncc(-c2nc(N3CCOCC3)c3sc(NCCCCCC(=O)NO)cc3n2)cn1 [Compound 232] .
A: < 100 nM

Q: Name the recorded IC50 for Nc1ccc(-c2nc(N3CCOCC3)c3sc(CNCc4ccc(C(=O)NO)cc4)cc3n2)cc1 [Compound 209] .
A: > 10000 nM

Q: Name the recorded IC50 for Nc1ccc(-c2nc(N3CCOCC3)c3sc(S(=O)(=O)NCC4CCN(c5ncc(C(=O)NO)cn5)CC4)cc3n2)cc1 [Compound 309] .
A: 100 to 1000 nM

Q: Name the recorded IC50 for O=C(CCCCCN1CCN(Cc2cc3nc(-c4cccc5[nH]ncc45)nc(N4CCOCC4)c3s2)CC1)NO [Compound 12] .
A: < 100 nM

Q: Name the recorded IC50 for CN(Cc1cc2nc(-c3ccc(C(F)(F)F)cc3)nc(N3CCOCC3)c2s1)c1ncc(C(=O)NO)cn1 [Compound 202] .
A: 100 to 1000 nM

Q: Name the recorded IC50 for COc1ncc(-c2nc(N3CCOCC3)c3sc(NS(=O)(=O)c4cccc(/C=C/C(=O)NO)c4)cc3n2)cn1 [Compound 220] .
A: < 100 nM

Q: Name the recorded IC50 for CNc1ccc(-c2nc(N3CCOCC3)c3sc(C(C)(C)N(C)c4ncc(C(=O)NO)cn4)cc3n2)cn1 [Compound 241] .
A: 100 to 1000 nM

Source: patent US20130102595A1
